Origin of the recorded values: patent US11147812B2

# experimental system: Rho kinase 1 (ROCK1) (Homo sapiens)
# Sequence (Q13464 whole entry): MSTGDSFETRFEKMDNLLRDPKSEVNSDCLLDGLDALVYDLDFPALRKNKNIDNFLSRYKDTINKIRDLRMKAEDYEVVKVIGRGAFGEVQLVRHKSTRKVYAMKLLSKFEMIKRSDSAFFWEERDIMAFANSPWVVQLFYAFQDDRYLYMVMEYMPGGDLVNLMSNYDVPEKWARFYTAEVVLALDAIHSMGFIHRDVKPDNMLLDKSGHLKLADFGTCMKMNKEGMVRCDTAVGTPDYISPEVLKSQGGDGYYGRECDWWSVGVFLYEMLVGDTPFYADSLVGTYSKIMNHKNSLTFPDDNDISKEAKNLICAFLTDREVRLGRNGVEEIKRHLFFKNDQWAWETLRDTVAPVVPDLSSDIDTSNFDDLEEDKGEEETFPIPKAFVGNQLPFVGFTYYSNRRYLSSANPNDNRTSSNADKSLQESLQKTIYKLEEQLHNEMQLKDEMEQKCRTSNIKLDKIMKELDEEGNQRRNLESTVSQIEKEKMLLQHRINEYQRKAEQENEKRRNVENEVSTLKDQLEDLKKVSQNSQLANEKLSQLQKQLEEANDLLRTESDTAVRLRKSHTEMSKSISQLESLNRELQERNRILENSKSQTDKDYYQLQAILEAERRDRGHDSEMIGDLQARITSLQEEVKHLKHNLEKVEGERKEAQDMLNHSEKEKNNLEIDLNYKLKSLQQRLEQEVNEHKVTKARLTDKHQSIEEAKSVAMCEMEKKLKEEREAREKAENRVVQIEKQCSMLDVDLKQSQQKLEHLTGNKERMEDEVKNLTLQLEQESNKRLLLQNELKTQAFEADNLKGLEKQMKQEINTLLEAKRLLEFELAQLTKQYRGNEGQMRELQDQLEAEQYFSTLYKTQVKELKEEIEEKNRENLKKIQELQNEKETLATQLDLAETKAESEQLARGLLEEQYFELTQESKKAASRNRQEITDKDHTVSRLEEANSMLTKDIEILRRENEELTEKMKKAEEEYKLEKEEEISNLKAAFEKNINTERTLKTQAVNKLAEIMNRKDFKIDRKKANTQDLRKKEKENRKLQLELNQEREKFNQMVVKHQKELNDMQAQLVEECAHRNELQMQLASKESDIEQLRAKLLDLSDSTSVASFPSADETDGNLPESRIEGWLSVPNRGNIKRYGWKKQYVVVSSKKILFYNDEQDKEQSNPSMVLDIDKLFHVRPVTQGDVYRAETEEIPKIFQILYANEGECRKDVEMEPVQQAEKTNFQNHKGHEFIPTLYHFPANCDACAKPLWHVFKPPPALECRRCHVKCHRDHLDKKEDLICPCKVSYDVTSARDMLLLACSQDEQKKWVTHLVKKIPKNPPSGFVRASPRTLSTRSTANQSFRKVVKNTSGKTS
# test details: In vitro Rho kinase inhibitory activity assay (ADP-Glo), ROCK1
# Type: biochemical
# reported conditions: 10 μM ATP, 25° C., Ki by Cheng-Prusoff
pKi: −log10 of the molar value.
quantity name: pKi

Recorded results for 2 compounds are shown here.
compound: Cc1c[nH]c2nccc(Oc3ccc(CC(CN)C(=O)N4CCN(C5CC5)CC4)cc3)c12 (stereo not drawn) [Example 2]
measurement: > 8.52

compound: NCC(Cc1ccc(Oc2ccnc3[nH]ccc23)cc1)C(=O)NC1CCOCC1 (stereo not drawn) [Example 34]
measurement: 7.52 to 8.52

Could you tell me which pKi is on file for CN(C)CCCNC(=O)C(CN)Cc1ccc(Oc2ccnc3[nH]cc(C#N)c23)cc1 (stereo not drawn) [Example 44] ?
> 8.52

Also need Cc1c[nH]c2nccc(Oc3ccc(C(CN)CC(=O)N4CCN(C5CC5)CC4)cc3)c12 (stereo not drawn) [Example 16] , thanks.
7.52 to 8.52

Also need Cc1c[nH]c2nccc(Oc3ccc([C@H]4CCN[C@@H]4C(=O)NCCc4ccncc4)cc3)c12 (racemic) [Example 20] , thanks.
> 8.52

Also need CN1CCN(C(=O)C(N)c2ccc(Oc3ccnc4[nH]ccc34)cc2)CC1 (stereo not drawn) [Example 11] , thanks.
< 7.52

Also need Cc1c[nH]c2nccc(Oc3ccc([C@H]4CNC[C@@H]4C(=O)N(C)Cc4ccccc4)cc3)c12 (racemic) [Example 18] , thanks.
7.52 to 8.52

Also need CN1CCC(N2CNCC(Cc3ccc(Oc4ccnc5[nH]cc(C#N)c45)cc3)C2=O)CC1 (stereo not drawn) [Example 47] , thanks.
7.52 to 8.52

Also need Cc1c[nH]c2nccc(Oc3ccc(CC(CN)C(=O)N4C[C@@H]5C[C@H]4CN5C)cc3F)c12 (single isomer, unassigned) [Example 4A] , thanks.
7.52 to 8.52

Also need Cc1c[nH]c2nccc(Oc3ccc(CC(CN)C(=O)N4CCN(Cc5ccccc5)CC4)cc3F)c12 (single isomer, unassigned) [Example 29A] , thanks.
7.52 to 8.52

Also need Cc1c[nH]c2nccc(Oc3ccc([C@H]4CNC[C@@H]4C(=O)NCc4ccccc4)cc3)c12 (single isomer, unassigned) [Example 17B] , thanks.
7.52 to 8.52

Also need Cc1cc2c(Oc3ccc(CC(CN)C(=O)N4CCN(Cc5ccccc5)CC4)cc3)ccnc2[nH]1 (stereo not drawn) [Example 6] , thanks.
< 7.52

Also need Cc1c[nH]c2nccc(Oc3ccc(CC(CN)C(=O)N4CCN(Cc5ccccn5)CC4)cc3F)c12 (stereo not drawn) [Example 5] , thanks.
> 8.52

Also need Cc1c[nH]c2nccc(Oc3ccc([C@@H]4CCN[C@H]4C(=O)N4CCNCC4)cc3)c12 (racemic) [Example 27] , thanks.
7.52 to 8.52

Also need CN1C[C@@H]2C[C@H]1CN2C(=O)C(CN)Cc1ccc(Oc2ccnc3[nH]cc(C#N)c23)cc1 (stereo partly drawn) [Example 48] , thanks.
7.52 to 8.52
